Origin of the recorded values: the supplement of paper PMC9112550

# System: Escherichia coli TOP10
# protocol_text: shrunken log2 fold change of peptide-encoding DNA abundance (4.5 h post-induction vs induction); higher = less antimicrobial activity (less host growth inhibition)
# details: time post-induction: 4.5 h; library: site-saturation at positions 5, 18, 19, 20
metric: shrunken log2 fold change
Respond using a number only.

Example results:
biosequence=RRIRHRPPRLPRPRPRPARHPRP tested_system="Escherichia coli TOP10" observed=0.293
biosequence=RRIRKRPPRLPRPRPRPSIIPRP tested_system="Escherichia coli TOP10" observed=-0.221
biosequence=RRIRNRPPRLPRPRPRPIKSPRP tested_system="Escherichia coli TOP10" observed=-0.245
biosequence=RRIRGRPPRLPRPRPRPKFIPRP tested_system="Escherichia coli TOP10" observed=-0.425
biosequence=RRIRNRPPRLPRPRPRPSNTPRP tested_system="Escherichia coli TOP10" observed=-0.446

Give the observed shrunken log2 fold change of RRIRWRPPRLPRPRPRPKIVPRP for Escherichia coli TOP10.
-0.272

System Escherichia coli TOP10. Read-out shrunken log2 fold change. Item RRIRWRPPRLPRPRPRPAGDPRP . Report value.
0.363

Print Escherichia coli TOP10 shrunken log2 fold change for RRIRFRPPRLPRPRPRPGHMPRP .
-0.0911

State shrunken log2 fold change on Escherichia coli TOP10. Entry: RRIRPRPPRLPRPRPRPQNNPRP
-0.812

Look up and report measured shrunken log2 fold change (Escherichia coli TOP10) for the following sequence: RRIRHRPPRLPRPRPRPVAEPRP
0.232

Given RRIRSRPPRLPRPRPRPGNWPRP , report its shrunken log2 fold change on Escherichia coli TOP10.
-0.0906

Tell me its shrunken log2 fold change on Escherichia coli TOP10: RRIRPRPPRLPRPRPRPWAGPRP
-0.0189

Using Escherichia coli TOP10 as the test system, report measured shrunken log2 fold change of RRIRNRPPRLPRPRPRPPIIPRP .
-0.192

State, for Escherichia coli TOP10, measured shrunken log2 fold change of the sequence listed here: RRIRSRPPRLPRPRPRPMRNPRP
0.628

====

# System: Escherichia coli TOP10
# protocol_text: shrunken log2 fold change of peptide-encoding DNA abundance (4.5 h post-induction vs induction); higher = less antimicrobial activity (less host growth inhibition)
# details: time post-induction: 4.5 h; library: site-saturation at positions 5, 18, 19, 20
metric: shrunken log2 fold change
Answer field: number only, no words.

biosequence=RRIRKRPPRLPRPRPRPLTLPRP observed=0.0103
biosequence=RRIRGRPPRLPRPRPRPAMQPRP observed=1.05
biosequence=RRIRIRPPRLPRPRPRPHCLPRP observed=-0.104
biosequence=RRIRARPPRLPRPRPRPRNSPRP observed=-0.0469
biosequence=RRIRNRPPRLPRPRPRPKNIPRP observed=-0.483

Tell me its shrunken log2 fold change on Escherichia coli TOP10: RRIRPRPPRLPRPRPRPYVGPRP
-0.157

State the measured shrunken log2 fold change (Escherichia coli TOP10) of RRIRHRPPRLPRPRPRPCKIPRP
-0.036

Report the value of shrunken log2 fold change obtained on Escherichia coli TOP10 for RRIRQRPPRLPRPRPRPMFMPRP .
-0.0688

Report shrunken log2 fold change from Escherichia coli TOP10 testing of RRIRGRPPRLPRPRPRPQWTPRP
0.319

State the measured shrunken log2 fold change (Escherichia coli TOP10) of RRIRIRPPRLPRPRPRPGLHPRP
-0.000332

Would you please give the reported shrunken log2 fold change of RRIRDRPPRLPRPRPRPKTRPRP with Escherichia coli TOP10?
0.533

Please report shrunken log2 fold change with Escherichia coli TOP10 for item RRIRQRPPRLPRPRPRPLETPRP .
0.181

Specify the recorded shrunken log2 fold change for RRIRLRPPRLPRPRPRPFGKPRP , system: Escherichia coli TOP10.
-0.168

Look up Escherichia coli TOP10 data: shrunken log2 fold change of RRIRHRPPRLPRPRPRPNNGPRP , then report it.
0.0142

Lab note: record shrunken log2 fold change of RRIRFRPPRLPRPRPRPWVQPRP tested on Escherichia coli TOP10.
-0.116

Fill in: shrunken log2 fold change on Escherichia coli TOP10, entry RRIRMRPPRLPRPRPRPVSAPRP
0.617

Return reported shrunken log2 fold change for target or system Escherichia coli TOP10, item RRIRQRPPRLPRPRPRPRQVPRP .
0.302

Give shrunken log2 fold change for RRIRHRPPRLPRPRPRPESPPRP tested on Escherichia coli TOP10.
0.0722

Under Escherichia coli TOP10, report shrunken log2 fold change for RRIRTRPPRLPRPRPRPHLVPRP
0.0214

Report shrunken log2 fold change on Escherichia coli TOP10 for this entry: RRIRRRPPRLPRPRPRPECSPRP
-0.121

# return shrunken log2 fold change for RRIRGRPPRLPRPRPRPYGHPRP , test system: Escherichia coli TOP10
0.323

// fetch shrunken log2 fold change; item: RRIRIRPPRLPRPRPRPGYLPRP ; system: Escherichia coli TOP10
2.69

====

# System: Escherichia coli TOP10
# protocol_text: shrunken log2 fold change of peptide-encoding DNA abundance (4.5 h post-induction vs induction); higher = less antimicrobial activity (less host growth inhibition)
# details: time post-induction: 4.5 h; library: site-saturation at positions 5, 18, 19, 20
metric: shrunken log2 fold change
Number only, no unit.

biosequence=RRIRIRPPRLPRPRPRPEKYPRP metric="shrunken log2 fold change" observed=-0.423
biosequence=RRIRYRPPRLPRPRPRPPMHPRP metric="shrunken log2 fold change" observed=-0.418
biosequence=RRIRWRPPRLPRPRPRPVDKPRP metric="shrunken log2 fold change" observed=-0.0524

Please list shrunken log2 fold change recorded for the sequence RRIRNRPPRLPRPRPRPGDCPRP
0.404

====

# Test system: Escherichia coli TOP10
# protocol_text: shrunken log2 fold change of peptide-encoding DNA abundance (4.5 h post-induction vs induction); higher = less antimicrobial activity (less host growth inhibition)
# details: time post-induction: 4.5 h; library: site-saturation at positions 5, 18, 19, 20
metric: shrunken log2 fold change
Give a plain numeric answer without units written out.

Please review the following examples before continuing.
biosequence=RRIRARPPRLPRPRPRPKLFPRP metric="shrunken log2 fold change" observed=0.233
biosequence=RRIRRRPPRLPRPRPRPTRDPRP metric="shrunken log2 fold change" observed=0.64

Please supply the value of reported shrunken log2 fold change for the item RRIRCRPPRLPRPRPRPASLPRP
-0.234

Supply shrunken log2 fold change value. Item: RRIRDRPPRLPRPRPRPDDLPRP
0.00447

Give the reported value of shrunken log2 fold change for this record: RRIRERPPRLPRPRPRPRSGPRP
-0.049

Provide measured shrunken log2 fold change value, entry: RRIRTRPPRLPRPRPRPVNSPRP
-0.342

Give the reported value of shrunken log2 fold change for this record: RRIRFRPPRLPRPRPRPLLRPRP
0.0227

State its shrunken log2 fold change for this sequence: RRIRHRPPRLPRPRPRPRDMPRP
0.137

Read off the recorded shrunken log2 fold change for RRIRRRPPRLPRPRPRPGANPRP
0.208

Using the record for RRIRIRPPRLPRPRPRPTYTPRP , state its measured shrunken log2 fold change.
-0.405

// Input: RRIRMRPPRLPRPRPRPFQDPRP . Output its shrunken log2 fold change only.
-0.235

Input RRIRRRPPRLPRPRPRPVRKPRP , output reported shrunken log2 fold change.
-0.0548

Recall and state the measured shrunken log2 fold change for RRIRFRPPRLPRPRPRPDQAPRP .
-0.0167

Provide one value: measured shrunken log2 fold change of RRIRHRPPRLPRPRPRPPRMPRP
0.284

Provide one value: measured shrunken log2 fold change of RRIRKRPPRLPRPRPRPMQVPRP
0.175

State its shrunken log2 fold change: RRIRGRPPRLPRPRPRPATYPRP
0.235

====

# Test system: Escherichia coli TOP10
# protocol_text: shrunken log2 fold change of peptide-encoding DNA abundance (4.5 h post-induction vs induction); higher = less antimicrobial activity (less host growth inhibition)
# details: time post-induction: 4.5 h; library: site-saturation at positions 5, 18, 19, 20
Listed sequences paired with reported shrunken log2 fold change
// no unit, no text: just the number

biosequence=RRIRPRPPRLPRPRPRPHYGPRP observed=-0.569
biosequence=RRIRHRPPRLPRPRPRPQISPRP observed=-0.0457
biosequence=RRIRSRPPRLPRPRPRPRRLPRP observed=0.193
biosequence=RRIRYRPPRLPRPRPRPCLGPRP observed=-0.231
biosequence=RRIRHRPPRLPRPRPRPKDRPRP observed=0.00902

Next sequence, shrunken log2 fold change to be filled in.
Give Escherichia coli TOP10 shrunken log2 fold change for the following sequence: RRIRGRPPRLPRPRPRPLQVPRP
0.458

====

# Tested on: Escherichia coli TOP10;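 note: peptides expressed intracellularly from a pBAD plasmid library in pooled LB shake-flask culture, induced with 0.3% L-arabinose, DNA abundance read by NGS, three biological replicates, DESeq2 with apeglm shrinkage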
# protocol_text: shrunken log2 fold change of peptide-encoding DNA abundance (4.5 h post-induction vs induction); higher = less antimicrobial activity (less host growth inhibition)
# details: time post-induction: 4.5 h; library: site-saturation at positions 5, 18, 19, 20
So basically: shrunken log2 fold change at 0.004 or higher? That is Criterion met. Lower than 0.004? That is Criterion not met.

Field: example entries. Status: answers known.
biosequence=RRIRKRPPRLPRPRPRPGSIPRP assigned_class="Criterion met"
biosequence=RRIRTRPPRLPRPRPRPYFWPRP assigned_class="Criterion not met"
biosequence=RRIRCRPPRLPRPRPRPKAGPRP assigned_class="Criterion met"

Consider the record given below.
Determine whether measured shrunken log2 fold change meets or exceeds 0.004 for RRIRFRPPRLPRPRPRPFSMPRP
Criterion not met
